Some compounds, each annotated with its measured EC50.
# System: recombinant NL4-3 virus (Renilla luciferase in nef)
# assay procedure: HIV cell culture assay (antiviral activity, luciferase readout in MT-2 cells)
# Type: cell-based
# assay context: Renilla, NL43
Respond with the bare value in nM.

Examples with their reported EC50 follow.
Challenge: Looking for the measured EC50 of Cn1nc(NS(C)(=O)=O)c2c(Cl)ccc(-n3c([C@H](Cc4cc(F)cc(F)c4)NC(=O)Cn4nc(C(F)F)c5c4C(F)(F)[C@@H]4C[C@H]54)nc4cc(-c5ccc6scnc6c5)ccc4c3=O)c21 (atropisomer, axis not shown; (P)) , can you help?
Response given: 0.44

Challenge: Looking for the measured EC50 of Cn1nc(NS(C)(=O)=O)c2c(Cl)ccc(-n3c([C@H](Cc4cc(F)cc(F)c4)NC(=O)Cn4ccc(C5CC5)n4)nc4cc(-c5ccn(CC(F)(F)C(F)F)n5)ccc4c3=O)c21 (atropisomer, axis not shown; (P)) , can you help?
Response given: 0.043

Challenge: Looking for the measured EC50 of Cn1nc(NS(C)(=O)=O)c2c(Cl)ccc(-n3c([C@H](Cc4cc(F)cc(F)c4)NC(=O)Cn4nc(C(F)F)c5c4C(F)(F)[C@@H]4C[C@H]54)nc4cc(-c5ccn(CCC(C)(F)F)n5)ccc4c3=O)c21 (atropisomer, axis not shown; (P)) , can you help?
Response given: 0.068

Challenge: Looking for the measured EC50 of Cn1nc(NS(C)(=O)=O)c2c(Cl)ccc(-n3c([C@H](Cc4cc(F)cc(F)c4)NC(=O)Cn4nc(C(F)F)c5c4C(F)(F)[C@@H]4C[C@H]54)nc4cc(-c5ncc(F)cn5)ccc4c3=O)c21 (atropisomer, axis not shown; (P)) , can you help?
Response given: 0.045

Next:
Challenge: Looking for the measured EC50 of Cn1nc(NS(C)(=O)=O)c2c(Cl)ccc(-n3c([C@H](Cc4cc(F)cc(F)c4)NC(=O)Cn4nc(C(F)F)c5c4C(F)(F)[C@@H]4C[C@H]54)nc4cc(-c5ccn(CC(F)(F)C(F)(F)F)n5)ccc4c3=O)c21 (atropisomer, axis not shown; (P)) , can you help?
Response given: 0.091

Challenge: Looking for the measured EC50 of Cn1nc(NS(C)(=O)=O)c2c(Cl)ccc(-n3c([C@H](Cc4cc(F)cc(F)c4)NC(=O)Cn4nc(C(F)F)c5c4C(F)(F)[C@@H]4C[C@H]54)nc4cc(-c5cc(C(C)(F)F)ccn5)ccc4c3=O)c21 (atropisomer, axis not shown; (P)) , can you help?
Response given: 0.33

Challenge: Looking for the measured EC50 of Cn1nc(NS(C)(=O)=O)c2c(Cl)ccc(-n3c([C@H](Cc4cc(F)cc(F)c4)NC(=O)Cn4nc(C(F)F)c5c4C(F)(F)[C@@H]4C[C@H]54)nc4cc(-c5ccc6ncsc6c5)ccc4c3=O)c21 (atropisomer, axis not shown; (P)) , can you help?
Response given: 0.61

Challenge: Looking for the measured EC50 of Cn1nc(NS(C)(=O)=O)c2c(Cl)ccc(-n3c([C@H](Cc4cc(F)cc(F)c4)NC(=O)Cn4nc(C(F)F)c5c4C(F)(F)[C@@H]4C[C@H]54)nc4cc(-c5ncc(F)cc5Cl)ccc4c3=O)c21 (atropisomer, axis not shown; (P)) , can you help?
Response given: 0.11

====

Some molecules, each annotated with its measured CC50 at 4 days.
# assay procedure: Compound cytotoxicity, XTT-based colorimetric assay
# Type: cell-based
# assay context: human; uninfected MT2 cells, day 4, XTT

Challenge: Looking for the measured CC50 at 4 days of Cn1nc(NS(C)(=O)=O)c2c(Cl)ccc(-n3c([C@H](Cc4cc(F)cc(F)c4)NC(=O)Cn4nc(C(F)F)c5c4C(F)(F)[C@@H]4C[C@H]54)nc4cc(-c5ccn(CC(F)(F)C(F)F)n5)ccc4c3=O)c21 (atropisomer, axis not shown; (P)) , can you help?
Response given: > 0.1 µM

Next:
Challenge: Looking for the measured CC50 at 4 days of CS(=O)(=O)Nc1nn(CCCF)c2c(-n3c([C@H](Cc4cc(F)cc(F)c4)NC(=O)Cn4nc(C(F)F)c5c4C(F)(F)[C@@H]4C[C@H]54)nc4cc(-c5ccn(CC(F)(F)C(F)F)n5)ccc4c3=O)ccc(Cl)c12 , can you help?
Response given: > 0.1 µM

====

# assay procedure: Compound cytotoxicity, XTT-based colorimetric assay
# Type: cell-based
# assay context: human; uninfected MT2 cells, day 4, XTT
Some compounds, each annotated with its measured CC50 at 4 days.

Challenge: Looking for the measured CC50 at 4 days of Cn1nc(NS(C)(=O)=O)c2c(Cl)ccc(-n3c([C@H](Cc4cc(F)cc(F)c4)NC(=O)Cn4nc(C(F)F)c5c4C(F)(F)[C@@H]4C[C@H]54)nc4cc(-c5ccn(CCOC(F)(F)F)n5)ccc4c3=O)c21 (atropisomer, axis not shown; (P)) , can you help?
Response given: > 100 nM

Consider now this further compound.
Challenge: Looking for the measured CC50 at 4 days of Cn1nc(NS(C)(=O)=O)c2c(Cl)ccc(-n3c([C@H](Cc4cc(F)cc(F)c4)NC(=O)Cn4nc(C(F)F)c5c4C(F)(F)[C@@H]4C[C@H]54)nc4cc(-c5ccc6ocnc6c5)ccc4c3=O)c21 (atropisomer, axis not shown; (P)) , can you help?
Response given: > 100 nM

====

# assay procedure: Compound cytotoxicity, XTT-based colorimetric assay
# Type: cell-based
# assay context: human; uninfected MT2 cells, day 4, XTT
property measured: CC50 at 4 days

Challenge: Looking for the measured CC50 at 4 days of Cn1nc(NS(C)(=O)=O)c2c(Cl)ccc(-n3c([C@H](Cc4cc(F)cc(F)c4)NC(=O)Cn4nc(C(F)F)c5c4C(F)(F)[C@@H]4C[C@H]54)nc4cc(-c5csc(C(F)(F)F)n5)ccc4c3=O)c21 (atropisomer, axis not shown; (P)) , can you help?
Response given: > 100 nM

Challenge: Looking for the measured CC50 at 4 days of Cn1nc(NS(C)(=O)=O)c2c(Cl)ccc(-n3c([C@H](Cc4cc(F)cc(F)c4)NC(=O)Cn4nc(C(F)F)c5c4C(F)(F)[C@@H]4C[C@H]54)nc4cc(-c5cnn(CC(F)(F)F)c5)ccc4c3=O)c21 (atropisomer, axis not shown; (P)) , can you help?
Response given: > 100 nM

Next:
Challenge: Looking for the measured CC50 at 4 days of Cn1nc(NS(C)(=O)=O)c2c(Cl)ccc(-n3c([C@H](Cc4cc(F)cc(F)c4)NC(=O)Cn4nc(C(F)F)c5c4C(F)(F)[C@@H]4C[C@H]54)nc4cc(-c5ncc(F)cn5)ccc4c3=O)c21 (atropisomer, axis not shown; (P)) , can you help?
Response given: > 100 nM

Challenge: Looking for the measured CC50 at 4 days of Cn1nc(NS(C)(=O)=O)c2c(Cl)ccc(-n3c([C@H](Cc4cc(F)cc(F)c4)NC(=O)Cn4nc(C(F)F)c5c4C(F)(F)[C@@H]4C[C@H]54)nc4cc(-c5ncc(Cl)cc5F)ccc4c3=O)c21 (atropisomer, axis not shown; (P)) , can you help?
Response given: > 500 nM

Challenge: Looking for the measured CC50 at 4 days of C[C@H](C(=O)N[C@@H](Cc1cc(F)cc(F)c1)c1nc2cc(-c3ccn(CC(C)(F)F)n3)ccc2c(=O)n1-c1ccc(Cl)c2c(NS(C)(=O)=O)nn(C)c12)n1ccc(C2CC2)n1 (atropisomer, axis not shown; (P)) , can you help?
Response given: > 100 nM

====

# assay procedure: Compound cytotoxicity, XTT-based colorimetric assay
# Assay type: cell-based
# assay context: human; uninfected MT2 cells, day 4, XTT
Some compounds, each annotated with its measured CC50 at 4 days.

Challenge: Looking for the measured CC50 at 4 days of Cn1nc(NS(C)(=O)=O)c2c(Cl)ccc(-n3c([C@H](Cc4cc(F)cc(F)c4)NC(=O)Cn4nc(C(F)F)c5c4C(F)(F)[C@@H]4C[C@H]54)nc4cc(-c5ccc(F)c(C(F)(F)F)n5)ccc4c3=O)c21 (atropisomer, axis not shown; (P)) [Example 30] , can you help?
Response given: > 500 nM

Challenge: Looking for the measured CC50 at 4 days of Cc1nc2cc(-c3ccc4c(=O)n(-c5ccc(Cl)c6c(NS(C)(=O)=O)nn(C)c56)c([C@H](Cc5cc(F)cc(F)c5)NC(=O)Cn5nc(C(F)F)c6c5C(F)(F)[C@@H]5C[C@H]65)nc4c3)ccc2s1 (atropisomer, axis not shown; (P)) [Example 36] , can you help?
Response given: > 100 nM

Challenge: Looking for the measured CC50 at 4 days of Cn1nc(NS(C)(=O)=O)c2c(Cl)ccc(-n3c([C@H](Cc4cc(F)cc(F)c4)NC(=O)Cn4nc(C(F)F)c5c4C(F)(F)[C@@H]4C[C@H]54)nc4cc(-c5cnn(CCF)c5)ccc4c3=O)c21 (atropisomer, axis not shown; (P)) [Example 42] , can you help?
Response given: > 100 nM

Challenge: Looking for the measured CC50 at 4 days of Cn1nc(NS(C)(=O)=O)c2c(Cl)ccc(-n3c([C@H](Cc4cc(F)cc(F)c4)NC(=O)Cn4nc(C(F)F)c5c4C(F)(F)[C@@H]4C[C@H]54)nc4cc(-c5cncc(C(F)F)c5)ccc4c3=O)c21 (atropisomer, axis not shown; (P)) [Example 17] , can you help?
Response given: > 500 nM

Cited source for all entries: patent US20230013823A1
